Target: BMP2 (Homo sapiens)
Construct: purchased MEDTRONIC, INC
Sequence (P12643 283-396): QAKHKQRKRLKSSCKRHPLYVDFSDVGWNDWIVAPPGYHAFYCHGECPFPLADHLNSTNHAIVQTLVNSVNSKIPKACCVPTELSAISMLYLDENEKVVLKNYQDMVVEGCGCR
Experiment: BMP2 binding ELISA of synthetic truncation peptides
Set-up: key: (−) no binding; (+) binding similar to that of full-length SEQ ID NO: 148 binding; (−/+) binding decreased relative to full-length SEQ ID NO: 148 binding
Conditions: relative to full-length SEQ ID NO: 148, ELISA
quantity: BMP2 binding

Here are 6 substances together with their reported answers.
186 (WDDWIGYSR) [compound 186]: −
188 (DWIGYSR) [compound 188]: −
194 (IWDDWIGY) [compound 194]: −
196 (WDDWIG) [compound 196]: −
189 (SIWDDWIGYS) [compound 189]: +
187 (DDWIGYSR) [compound 187]: −

Incoming: Look up BMP2 binding with BMP2 (Homo sapiens) for this substance: 148 (SIWDDWIGYSR) [compound 148]
Outgoing: +

Incoming: Look up BMP2 binding with BMP2 (Homo sapiens) for this substance: 190 (SIWDDWIGY) [compound 190]
Outgoing: +

Incoming: Look up BMP2 binding with BMP2 (Homo sapiens) for this substance: 197 (IWDDWI) [compound 197]
Outgoing: −

Incoming: Look up BMP2 binding with BMP2 (Homo sapiens) for this substance: 191 (SIWDDWIG) [compound 191]
Outgoing: −/+

Incoming: Look up BMP2 binding with BMP2 (Homo sapiens) for this substance: 195 (WDDWIGY) [compound 195]
Outgoing: −

Incoming: Look up BMP2 binding with BMP2 (Homo sapiens) for this substance: 193 (IWDDWIGYS) [compound 193]
Outgoing: −

Incoming: Look up BMP2 binding with BMP2 (Homo sapiens) for this substance: 192 (SIWDDWI) [compound 192]
Outgoing: −/+

Incoming: Look up BMP2 binding with BMP2 (Homo sapiens) for this substance: 185 (IWDDWIGYSR) [compound 185]
Outgoing: −
